Values from patent US9980943B2

# System: β-galactosidase in CMV-LacZ C2C12 myoblasts
# assay_overview: CMV-LacZ secondary screen in C2C12 myoblasts (β-Gal stabilizing assay)
# Assay type: cell-based, mouse
# assay_setup: 5 uM; CMV-LacZ C2C12 myoblasts
Catalogue of molecules with associated CMV-LACZ in Myoblasts (β-galactosidase activity relative to DMSO)
Could you respond with only the numeric value?

A selection of reference data follows.
# molecule, assay_value
rows = [
    ("CC(C(=O)Nc1ccc(C#N)cc1)N(C)CC(=O)Nc1cccc(F)c1 (stereo not shown)", 0.8766),
    ("C#CC1(O)CCC2C3CCC4=C/C(=N/OCC(=O)NCC(=O)NC(C(=O)O)C(C)C)CC[C@]4(C)C3CC[C@@]21C (stereo partly shown)", 1.2009),
    ("O=c1c2cc(-c3ccccc3)sc2nc2n1N=C(c1ccccc1)CS2", 1.1687),
]

Return the recorded CMV-LACZ in Myoblasts (β-galactosidase activity relative to DMSO) value; entry: CCOC(=O)C1CCCN(C(=O)CNS(=O)(=O)c2ccc(Br)s2)C1 (stereo not shown) 0.8994

Return the recorded CMV-LACZ in Myoblasts (β-galactosidase activity relative to DMSO) value; entry: CC1CC(C)(C)NC(=S)N1CC(=O)N(C)Cc1ccccc1 (stereo not shown) 0.9258

Return the recorded CMV-LACZ in Myoblasts (β-galactosidase activity relative to DMSO) value; entry: Cc1ccc(N2C(=O)C3NN=C(C(=O)OCc4ccccc4)C3C2=O)cc1 (stereo not shown) 0.7808

Return the recorded CMV-LACZ in Myoblasts (β-galactosidase activity relative to DMSO) value; entry: CC1(C)Cc2c(cnn2-c2cccc(F)c2)C(NC(=O)CCc2cnccn2)C1 (stereo not shown) 1.0114

Return the recorded CMV-LACZ in Myoblasts (β-galactosidase activity relative to DMSO) value; entry: `Cc1ccc(NS(=O)(=O)c2ccc(-c3ccc(=O)[nH]n3)o2)c(C)c1` 1.0944

Return the recorded CMV-LACZ in Myoblasts (β-galactosidase activity relative to DMSO) value; entry: `Cn1c(-c2ccccc2)cc2ccccc21` 1.1754

Return the recorded CMV-LACZ in Myoblasts (β-galactosidase activity relative to DMSO) value; entry: `c1ccc(-c2nn[nH]n2)nc1` 0.9910
